system: HEK293-SIE STAT3 Y640F; experiment: drug sensitivity score (inhibition of STAT3 luciferase reporter); higher = stronger inhibition; settings: 6 h; IL6 0 ng/ml
Response key: t means drug sensitivity score >= 8 DSS; f means drug sensitivity score < 8 DSS.

compound | target-or-system | class-name
CC(C)n1nc(-c2ccc3oc(N)nc3c2)c2c(N)ncnc21 [INK128] | HEK293-SIE STAT3 Y640F | t
N#C/C(=C\c1ccc(O)c(O)c1)C(=O)NCc1ccccc1 [AG490] | HEK293-SIE STAT3 Y640F | f
Cc1ccc(C(=O)Nc2ccc(CN3CCN(C)CC3)c(C(F)(F)F)c2)cc1C#Cc1cnc2cccnn12 [Ponatinib] | HEK293-SIE STAT3 Y640F | f
O=P1(N(CCCl)CCCl)NCCCO1 (stereo not given) [Cyclophosphamide] | HEK293-SIE STAT3 Y640F | f
CN1CC[C@H](c2c(O)cc(O)c3c(=O)cc(-c4ccccc4Cl)oc23)[C@H](O)C1 [Alvocidib] | HEK293-SIE STAT3 Y640F | t
CO[C@H]1C[C@@H]2CC[C@@H](C)[C@@](O)(O2)C(=O)C(=O)N2CCCC[C@H]2C(=O)O[C@H]([C@H](C)C[C@@H]2CC[C@@H](OC(=O)C(C)(CO)CO)[C@H](OC)C2)CC(=O)[C@H](C)/C=C(\C)[C@@H](O)[C@@H](OC)C(=O)[C@H](C)C[C@H](C)/C=C/C=C/C=C/1C [Temsirolimus] | HEK293-SIE STAT3 Y640F | t
CN(C)C[C@@H]1CCn2cc(c3ccccc32)C2=C(C(=O)NC2=O)c2cn(c3ccccc23)CCO1 [Ruboxistaurin] | HEK293-SIE STAT3 Y640F | f
COc1ccc(-c2cc3c(C)nc(N)nc3n([C@H]3CC[C@H](OCCO)CC3)c2=O)cn1 | HEK293-SIE STAT3 Y640F | t
C[C@]12O[C@H](C[C@]1(O)CO)n1c3ccccc3c3c4c(c5c6ccccc6n2c5c31)CNC4=O [Lestaurtinib] | HEK293-SIE STAT3 Y640F | t
CC(=O)c1c(C)c2cnc(Nc3ccc(N4CCNCC4)cn3)nc2n(C2CCCC2)c1=O [Palbociclib] | HEK293-SIE STAT3 Y640F | f

Q. Quick check: does NS(=O)(=O)c1cccc2c1C(=O)c1cccc(O)c1C2=O [LLL12] have drug sensitivity score greater than or equal to 8 DSS?
A. t

Q. Quick check: does C[C@]12C=CC(=O)C=C1CC[C@@H]1[C@@H]2[C@@H](O)C[C@@]2(C)[C@H]1CC[C@]2(O)C(=O)CO [Prednisolone] have drug sensitivity score greater than or equal to 8 DSS?
A. f

Q. Quick check: does CC[C@H](Nc1ncnc2[nH]cnc12)c1nc2cccc(F)c2c(=O)n1-c1ccccc1 [Idelalisib] have drug sensitivity score greater than or equal to 8 DSS?
A. f

Q. Quick check: does NC1(c2ccc(-c3nc4ccn5c(=O)[nH]nc5c4cc3-c3ccccc3)cc2)CCC1 [MK-2206] have drug sensitivity score greater than or equal to 8 DSS?
A. f
